Tested on: K-562 leukemia
Test: NCI tumour cell line growth inhibition, 48 h
Metric Name: TGI (µM)

>>> recorded_result("S=C(Nc1ccc2c(c1)Cc1ccccc1-2)Nc1ccc2c(c1)Cc1ccccc1-2")
74.5
>>> recorded_result("CCCC(=O)Nc1cc(/C=C/C(=O)N2C[C@H]3C[C@@]34C2=CC(=O)c2[nH]cc(C)c24)n(C)c1")
25
>>> recorded_result("COc1cc2c(cc1O)CC[C@@H]1C2CC[C@@]2(C)C1CC[C@@H]2O (stereo partly specified)")
26.1

====

Tested on: NCI-H226 lung
Test: NCI tumour cell line growth inhibition, 48 h
Below: a set of entries, each annotated with reported GI50.
Metric Name: GI50

>>> recorded_result("O=C(Nc1ccc(-c2ccnc(Nc3ccc(N4CCOCC4)cc3)n2)cc1)C1CCCN1 (centres undefined)")
"6.69 µM"
>>> recorded_result("CN(C)CCNc1c2c(c(NCCN(C)C)c3c(CO)c[nH]c13)C(=O)c1ccccc1C2=O")
"7.37 µM"
>>> recorded_result("N#Cc1ncc(N2C(=O)C3(CCC3)N(c3ccc(OC4CCNCC4)nc3)C2=S)cc1C(F)(F)F")
"15.7 µM"
>>> recorded_result("CN(C)c1ccc(N=C(C#N)c2nc(N)nc(N3CCN(c4ccccc4)CC3)n2)cc1")
"22.3 µM"
>>> recorded_result("COc1cc(/C=C/c2cc(/C=C/c3ccc(O)c(OC)c3)[nH]c(=O)n2)ccc1O")
"3.48 µM"
>>> recorded_result("N#Cc1ccc2c(c1)C(=O)c1c-2n(CCCN=[N+]=[N-])c(=O)c2cc([N+](=O)[O-])ccc12")
"40 µM"
>>> recorded_result("Brc1ccc2c(c1)c(-c1nc(-c3c[nH]c4ncccc34)cs1)cn2CCCN1CCCCC1")
"1.89 µM"
>>> recorded_result("N#CC1CCc2c(c(-c3cn[nH]c3C(F)(F)F)nc3c(F)cc4[nH]ncc4c23)C1 (centres undefined)")
"16 µM"
>>> recorded_result("CN1N=Nc2c(C(F)(F)F)nn(-c3ccccc3)c2N(C)C1=O")
"> 100 µM"

====

Below: a set of entries, each annotated with reported TGI.
Test system: OVCAR-4 ovarian
Assay: NCI tumour cell line growth inhibition, 48 h
Metric Name: TGI

>>> recorded_result("CC1(C)O[C@@H](CP(c2cccc3ccccc23)c2cccc3ccccc23)[C@H](CP(c2cccc3ccccc23)c2cccc3ccccc23)O1")
"> 100 µM"
>>> recorded_result("C[n+]1c(-c2ccc(/C=N/Nc3ccnc(N/N=C/c4ccc(-c5cn6ccccc6[n+]5C)cc4)n3)cc2)cn2ccccc21")
"> 100 µM"
>>> recorded_result("C=C1C(=O)O[C@H]2[C@H]1CC/C(COC(=O)/C=C/c1c[nH]c3ccccc13)=C\\CC[C@@]1(C)O[C@@H]21")
"0.546 µM"
>>> recorded_result("COc1cc(C2(C)SCCCS2)c(I)c(OC)c1OC")
"> 100 µM"
>>> recorded_result("c1cc2ccc1CNCCN1CCNCc3ccc(cc3)Oc3ccc(cc3)CNCCN(CCNCc3ccc(cc3)O2)CCNCc2ccc(cc2)Oc2ccc(cc2)CNCC1")
"3.34 µM"
>>> recorded_result("O=C(NCc1ccccc1)c1c(O)c2ccccc2[nH]c1=O")
"> 100 µM"
>>> recorded_result("O=C(Nc1nc(C23CC4CC(CC(C4)C2)C3)cs1)c1cc2cc([N+](=O)[O-])ccc2oc1=O")
"44.8 µM"
>>> recorded_result("CCC(=O)OC1=CN2C(=NC(c3ccc(N)cc3)=CC2c2cc(OC)c(OC)c(OC)c2)S1 (configuration not stated)")
"31.9 µM"
>>> recorded_result("C[C@@H]1OCC(O)C([C@H]2OC(c3ccccc3)=N[C@H]2CO)O1 (some centres not stated)")
"> 100 µM"
>>> recorded_result("Cc1cc(S(=O)(=O)Nc2nc3cc(-c4ccsc4)sc3c(=O)n2N)c(S)cc1Cl")
"> 100 µM"
>>> recorded_result("COc1cccc2c1[C@]1(O)C(O)CCCC21 (some centres not stated)")
"> 100 µM"
>>> recorded_result("COC(=O)C(C(=O)OC)C1CC(=O)c2c(Br)sc(Br)c21 (configuration not stated)")
"26.3 µM"
>>> recorded_result("COC(=O)/C(=N/O)C(C(=O)OC)C(=O)C(=O)Nc1c(Cl)cc(C)cc1S(=O)(=O)O (configuration not stated)")
"> 100 µM"
>>> recorded_result("COc1cccc2ccc3c(c12)C(=O)OC31CCc2c(C)cccc21 (configuration not stated)")
"> 46.4 µM"
>>> recorded_result("CCOC(=O)c1cc(-c2ccn(C(C)=O)c2)c(-c2cc(C)co2)[nH]1")
"> 100 µM"
>>> recorded_result("CC(=O)O[C@H](C[C@H](C(C)C)N(C)C(=O)[C@@H](NC(=O)[C@H]1CCCCN1C)C(C)(C)C)c1nc(C(=O)N[C@@H](Cc2ccccc2)C[C@H](C)C(=O)O)cs1")
"> 25 µM"
>>> recorded_result("COC(=O)[C@@H]1O[C@]12[C@@H](CO[Si](C)(C)C(C)(C)C)O[C@@H](n1cc(C)c(=O)[nH]c1=O)[C@@H]2O[Si](C)(C)C(C)(C)C")
"> 100 µM"

====

Tested on: DU-145 prostate
Experiment: NCI tumour cell line growth inhibition, 48 h
Metric Name: TGI

>>> recorded_result("COC(=O)C(C(=O)OC)C1CC(=O)c2c(Br)sc(Br)c21 (configuration not stated)")
"34.8 µM"
>>> recorded_result("Cc1nnc(CC#N)n1NC(=O)CC#N")
"> 100 µM"
>>> recorded_result("CCC(=O)OC1=CN2C(=NC(c3ccc(N)cc3)=CC2c2cc(OC)c(OC)c(OC)c2)S1 (configuration not stated)")
"13.1 µM"
>>> recorded_result("O=C(C=P(c1ccccc1)(c1ccccc1)c1ccccc1)c1ccc(-c2ccc(F)cc2F)cc1")
"16.2 µM"
>>> recorded_result("O=C(Nc1nc(C23CC4CC(CC(C4)C2)C3)cs1)c1cc2cc([N+](=O)[O-])ccc2oc1=O")
"> 100 µM"
>>> recorded_result("CN(C)c1ccc(N=C(C#N)c2nc(N)nc(N3CCN(c4ccccc4)CC3)n2)cc1")
"> 28.1 µM"
>>> recorded_result("COc1ccc(C2NC(=O)Nc3c2c(=O)oc2c3ccc3ccccc32)cc1 (configuration not stated)")
"> 100 µM"
>>> recorded_result("OC(O)(C(F)(F)F)C(F)(F)F")
"> 100 µM"
>>> recorded_result("C/C(=C\\CNc1nc(Cl)nc2nc[nH]c12)CO")
"> 100 µM"
>>> recorded_result("COc1ccc(N2C(=O)/C(=C/c3ccc(N(CCC#N)CCC#N)cc3)N=C2c2ccccc2)c(OC)c1")
"> 100 µM"
>>> recorded_result("CN(C)CCNc1c2c(c(NCCN(C)C)c3c(CO)c[nH]c13)C(=O)c1ccccc1C2=O")
"12.7 µM"
>>> recorded_result("FC(F)(F)c1cc(NC2=NCCN=C(Nc3cc(C(F)(F)F)cc(C(F)(F)F)c3)SS2)cc(C(F)(F)F)c1")
"18.9 µM"
>>> recorded_result("CCCC(=O)OC1CC(n2cc(F)c(=O)[nH]c2=O)OC1CO (configuration not stated)")
"> 3.23 µM"
>>> recorded_result("COc1cc(/C=C\\c2cc(OC)c(OC)c(OC)c2)cc(NS(=O)(=O)c2cccc(Cl)c2)c1OC")
"> 100 µM"
>>> recorded_result("CC1(C)N=C(N)N=C(N)N1c1ccc(OCCCCNC(=O)c2ccc(S(=O)(=O)F)cc2)c(Cl)c1")
"> 100 µM"
>>> recorded_result("C#CCOc1cccc(Nc2ncc3ncn(C4CCN(C(=O)CCl)C4)c3n2)c1 (configuration not stated)")
"> 62.5 µM"
>>> recorded_result("CCC1CCC2c3c([nH]c4ccccc34)C3C(=O)N(c4ccc(OC)cc4)C(=O)C3C2C1 (configuration not stated)")
"> 100 µM"

====

System: MCF7 breast
Experiment: NCI tumour cell line growth inhibition, 48 h
Metric Name: TGI (µM)

>>> recorded_result("O=C(c1ccccc1)c1ccccc1C(=O)c1ccccc1")
10.9
>>> recorded_result("O=C(Nc1ccc(-c2ccnc(Nc3ccc(N4CCOCC4)cc3)n2)cc1)C1CCCN1 (stereo not given)")
21.4
>>> recorded_result("CCC(=O)OC1=CN2C(=NC(c3ccc(N)cc3)=CC2c2cc(OC)c(OC)c(OC)c2)S1 (stereo not given)")
14.4
>>> recorded_result("Cc1nn(-c2ccccn2)c2c1C(SC#N)=C(C=O)CC2")
24.2
>>> recorded_result("COc1ccc(NC(=S)NNC(=O)c2cc(-c3ccccc3)nc3ccccc23)cc1")
17
>>> recorded_result("C=C1C(=O)O[C@H]2C3C(=C(C)CC[C@@H]12)C(=O)[C@@H]1OC31C (stereo not given in full)")
11.2
>>> recorded_result("Cc1cc(O)c2c(c1)C(=O)C(c1c(C)cc3c(c1O)C(=O)C1OC1C3=O)=CC2=O (stereo not given)")
12.1
>>> recorded_result("CCCC(=O)Nc1cc(/C=C/C(=O)N2C[C@H]3C[C@@]34C2=CC(=O)c2[nH]cc(C)c24)n(C)c1")
25
